Recorded pIC50 for compounds tested on UniProt:P21589, drawn from a number of studies.
pIC50: −log10 of the molar value.

Example entries begin here.
compound O=C(N[C@H]1C[C@H](C(=O)Nc2ccccc2)C1)O[C@@H]1CCN(c2cn[nH]c(=O)c2Cl)C1 , pIC50 observed: 5.00 to 9.00

compound O=C(N[C@H]1CC[C@H](O)C1)O[C@@H]1CCN(c2cn[nH]c(=O)c2Cl)C1 , pIC50 observed: 5.00 to 9.00

compound O=C(O)COCC(CO)(OC[C@H]1O[C@@H](c2ccc3c(NC4CCCC4)nc(Cl)nn23)[C@H](O)[C@@H]1O)P(=O)(O)O (stereo partly shown) , pIC50 observed: 9.00 to 9.30

Continuing:
compound COCCOCC(COCCO)(OC[C@H]1O[C@@H](n2ncc3c(NC4CCCC4)nc(Cl)nc32)[C@H](O)[C@@H]1O)P(=O)(O)O (mixture of isomers) , pIC50 observed: ≥ 7.00

compound CN(C(=O)NC1CCN(c2cn[nH]c(=O)c2Cl)C1)C1CCCC1 (stereo not shown) , pIC50 observed: 5.00 to 9.00
